Listed below: pEC50 values for each entry.
system: Human venous whole blood; assay: Human whole blood IFN-γ assay; type: cell-based; details: Homo sapiens, 24 h, human whole blood, anti-CD3 plus anti-CD28, 24 hours; 3 μM reference compound = 100% activation; read-out: INFg Whole Blood Normalized Agonist EC50;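 further: blood from healthy donors exposed to compound for 1 h before stimulation with anti-CD3 and anti-CD28 at 1 µg/mL each, IFN-γ quantified in supernatant by AlphaLISA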
pEC50: −log10 of the molar value.
Measurement Type: pEC50

- C[C@@H]1CN(c2cc(=O)n(C)c3ccc(C#N)nc23)[C@@H](C)CN1C(c1ccc(F)cc1)c1nc(C2CCOCC2)no1 (single isomer, unassigned): 6.72
- C[C@@H]1CN(c2c(C#N)c(=O)n(C)c3ccc(C#N)nc23)[C@@H](C)CN1C(c1ccc(F)cc1)c1ncccc1F (single isomer, unassigned): 5.66
- C[C@@H]1CN(c2c(C#N)c(=O)n(C)c3ccc(C#N)nc23)[C@@H](C)CN1C(c1ccc(F)cc1)c1ccns1 (single isomer, unassigned): 5.00
- C[C@@H]1CN(c2c(C#N)c(=O)n(C)c3ccc(C#N)nc23)CCN1Cc1ccccc1OC(F)(F)F: 4.77
- Cc1ccc(C(c2ccc(Cl)cc2)N2CCN(c3c(C#N)c(=O)n(C)c4ccc(C#N)nc34)C[C@H]2C)cc1 (mixture of isomers): 6.14
- CC(c1ccc(OC(F)(F)F)cc1)N1C[C@H](C)N(c2c(C#N)c(=O)n(C)c3ccc(C#N)nc23)C[C@H]1C (single isomer, unassigned): 4.89

* * *

biological target: human DGKζ (Homo sapiens, UniProt Q13574); construct: TVMV protease cleavage site (C); Hexa-His (C); made in house; host or cells: Sf9 insect cells (baculovirus, Bac-to-Bac); assay: DGKζ LIPGLO assay (extruded liposome substrate), in vitro DGK inhibition; assay type: biochemical; settings: liposome (LIPGLO) assay; read-out: DGKz LIPGLO IC50
Sequence (Q13574 with tags, fused parts or gaps isoform Q13574-4): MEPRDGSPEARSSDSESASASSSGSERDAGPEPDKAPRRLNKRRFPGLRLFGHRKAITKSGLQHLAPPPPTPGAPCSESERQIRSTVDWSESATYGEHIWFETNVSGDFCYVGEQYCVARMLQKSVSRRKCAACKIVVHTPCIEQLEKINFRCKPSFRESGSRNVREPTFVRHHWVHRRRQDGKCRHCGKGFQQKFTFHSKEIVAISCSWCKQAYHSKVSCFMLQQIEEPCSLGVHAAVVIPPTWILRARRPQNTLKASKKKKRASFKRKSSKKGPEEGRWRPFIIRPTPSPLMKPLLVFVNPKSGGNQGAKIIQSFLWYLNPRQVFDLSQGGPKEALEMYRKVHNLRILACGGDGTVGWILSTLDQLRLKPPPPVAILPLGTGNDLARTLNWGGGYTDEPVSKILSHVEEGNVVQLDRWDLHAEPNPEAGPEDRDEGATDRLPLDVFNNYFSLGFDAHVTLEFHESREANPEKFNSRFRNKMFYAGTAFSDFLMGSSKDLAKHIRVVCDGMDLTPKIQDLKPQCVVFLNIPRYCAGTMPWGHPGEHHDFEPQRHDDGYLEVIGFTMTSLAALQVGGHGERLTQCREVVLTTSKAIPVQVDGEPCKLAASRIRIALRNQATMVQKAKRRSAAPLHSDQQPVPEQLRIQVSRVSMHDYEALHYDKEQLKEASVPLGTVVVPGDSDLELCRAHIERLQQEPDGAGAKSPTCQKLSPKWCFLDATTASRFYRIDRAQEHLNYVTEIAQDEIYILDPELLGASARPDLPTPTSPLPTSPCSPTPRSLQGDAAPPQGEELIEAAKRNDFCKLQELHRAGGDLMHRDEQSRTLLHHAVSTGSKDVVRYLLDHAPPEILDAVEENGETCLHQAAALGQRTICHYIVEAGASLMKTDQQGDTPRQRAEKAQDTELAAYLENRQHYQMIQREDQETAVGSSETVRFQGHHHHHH
pIC50: −log10 of the molar value.
Measurement Type: pIC50

- C[C@@H]1CN(c2c(C#N)c(=O)n(C)c3ccc(C#N)nc23)CCN1C(c1ccc(F)cc1)c1ccc(F)cc1 [Example 32]: 6.07
- Cc1ncc(C(c2ccc(F)cc2)N2C[C@H](C)N(c3cc(=O)n(C)c4ccc(C#N)nc34)C[C@H]2C)cn1 (single isomer, unassigned) [Example 406]: 5.55
- CC[C@H]1CN(C(C)c2cc(F)c(F)c(F)c2)[C@H](C)CN1c1cc(=O)n(C)c2ccc(C#N)nc12 (single isomer, unassigned) [Example 1382]: 7.22
- CC[C@H]1CN(C(c2ccc(F)cc2)c2cscn2)[C@H](CC)CN1c1cc(=O)n(C)c2ccc(C#N)nc12 (single isomer, unassigned) [Example 1071]: 7.36
- CC(C)c1ccc(CN2C[C@H](C)N(c3cc(=O)n(C)c4ccc(C#N)nc34)C[C@H]2C)cc1 [Example 602]: 5.43
- CC[C@@H]1CN(c2cc(=O)n(C)c3ccc(C#N)nc23)[C@@H](C)CN1C(C)c1ccc(C2CC2)cc1F (single isomer, unassigned) [Example 1340]: 7.40
- CC[C@H]1CN(C(C)c2ccc3c(c2)OC(F)(F)O3)[C@H](CC)CN1c1cc(=O)n(C)c2ccc(C#N)nc12 (single isomer, unassigned) [Example 1369]: 6.12
- CC(C)Oc1ncccc1C(c1ccc(F)cc1)N1C[C@H](C)N(c2cc(=O)n(C)c3ccc(C#N)nc23)C[C@H]1C (single isomer, unassigned) [Example 207]: 5.51
- Cn1c(=O)cc(N2CCN(C(c3ccc(F)cc3)c3ccc(F)cc3)CC2CF)c2nc(C#N)ccc21 (single isomer, unassigned) [Example 150]: 4.54
- Cc1ccc(C(c2ccc(C)cc2)N2C[C@H](C)N(c3cc(=O)n(C)c4ccc(C#N)nc34)C[C@H]2C)cc1 [Example 301]: 6.06
- C[C@@H]1CN(c2cc(=O)n(C)c3ccc(C#N)nc23)[C@@H](C)CN1C(c1ccc(Cl)cc1)c1nc(C2CC2)no1 (single isomer, unassigned) [Example 1286]: 7.00
- CC(c1ccc2c(c1)OC(F)(F)O2)N1C[C@H](C)N(c2cc(=O)n(C)c3ccc(C#N)nc23)C[C@H]1C (single isomer, unassigned) [Example 654]: 6.89
- C[C@@H]1CN(c2cc(=O)n(C)c3ccc(C#N)nc23)[C@@H](C)CN1C(c1ccc(F)cc1)c1ccc(Cl)cc1 (stereo partly drawn) [Example 300]: 6.00
- C[C@@H]1CN(c2cc(=O)n(C)c3ccc(C#N)nc23)[C@@H](C)CN1C(c1ccc(Cl)cc1)c1nc(C2CC2)no1 (single isomer, unassigned) [Example 1285]: 7.77
- CCC(c1ccc(OC(C)C)cc1)N1C[C@H](C)N(c2cc(=O)n(C)c3ccc(C#N)nc23)C[C@H]1CC (single isomer, unassigned) [Example 1447]: 7.62
- C[C@@H]1CN(c2cc(=O)n(C)c3ccc(C#N)nc23)[C@@H](C)CN1C(c1ccc(F)cc1)c1cncn1C (stereo partly drawn) [Example 705]: 4.72
- C[C@@H]1CN(c2cc(=O)n(C)c3ccc(C#N)nc23)[C@@H](C)CN1C(c1ccccc1)c1c(F)cccc1F (single isomer, unassigned) [Example 272]: 6.35
- C[C@@H]1CN(c2cc(=O)n(C)c3ccc(C#N)nc23)[C@@H](C)CN1Cc1ccc(F)cc1F [Example 277]: 5.82
- Cc1ccc(C(c2cccc(F)c2)N2C[C@H](C)N(c3cc(=O)n(C)c4ccc(C#N)nc34)C[C@H]2C)cn1 (single isomer, unassigned) [Example 395]: 5.11
- Cc1ccc(C(c2cccc3c2OCCCO3)N2C[C@H](C)N(c3cc(=O)n(C)c4ccc(C#N)nc34)C[C@H]2C)nc1 (single isomer, unassigned) [Example 451]: 6.28
- CC[C@H]1CN(C(c2cccc(F)c2)c2ccc(OC)cn2)[C@H](CC)CN1c1cc(=O)n(C)c2ccc(C#N)nc12 (stereo partly drawn) [Example 1048]: 6.82
- COc1cc(F)ccc1C(c1ccc(F)cc1)N1C[C@H](C)N(c2c([N+](=O)[O-])c(=O)n(C)c3ccc(C#N)nc23)C[C@H]1C (single isomer, unassigned) [Example 121]: 4.28
- C[C@H]1CN(Cc2ccc3c(c2)OC(F)(F)O3)[C@H](CO)CN1c1cc(=O)n(C)c2ccc(C#N)nc12 [Example 1390]: 4.82
- Cn1c(=O)cc(N2CCN(C(c3ccc(F)cc3)c3ccc(F)cc3)CC2C#N)c2nc(C#N)ccc21 (stereo not drawn) [Example 145]: 4.64

* * *

molecular target: human DGKα (Homo sapiens, UniProt P23743); construct: TVMV protease cleavage site (C); Hexa-His (C); made in house; host or cells: Sf9 insect cells (baculovirus, Bac-to-Bac); assay: DGKα LIPGLO assay (extruded liposome substrate), in vitro DGK inhibition; type: biochemical; details: liposome (LIPGLO) assay; read-out: DGKa LIPGLO IC50
Sequence (P23743 with tags, fused parts or gaps): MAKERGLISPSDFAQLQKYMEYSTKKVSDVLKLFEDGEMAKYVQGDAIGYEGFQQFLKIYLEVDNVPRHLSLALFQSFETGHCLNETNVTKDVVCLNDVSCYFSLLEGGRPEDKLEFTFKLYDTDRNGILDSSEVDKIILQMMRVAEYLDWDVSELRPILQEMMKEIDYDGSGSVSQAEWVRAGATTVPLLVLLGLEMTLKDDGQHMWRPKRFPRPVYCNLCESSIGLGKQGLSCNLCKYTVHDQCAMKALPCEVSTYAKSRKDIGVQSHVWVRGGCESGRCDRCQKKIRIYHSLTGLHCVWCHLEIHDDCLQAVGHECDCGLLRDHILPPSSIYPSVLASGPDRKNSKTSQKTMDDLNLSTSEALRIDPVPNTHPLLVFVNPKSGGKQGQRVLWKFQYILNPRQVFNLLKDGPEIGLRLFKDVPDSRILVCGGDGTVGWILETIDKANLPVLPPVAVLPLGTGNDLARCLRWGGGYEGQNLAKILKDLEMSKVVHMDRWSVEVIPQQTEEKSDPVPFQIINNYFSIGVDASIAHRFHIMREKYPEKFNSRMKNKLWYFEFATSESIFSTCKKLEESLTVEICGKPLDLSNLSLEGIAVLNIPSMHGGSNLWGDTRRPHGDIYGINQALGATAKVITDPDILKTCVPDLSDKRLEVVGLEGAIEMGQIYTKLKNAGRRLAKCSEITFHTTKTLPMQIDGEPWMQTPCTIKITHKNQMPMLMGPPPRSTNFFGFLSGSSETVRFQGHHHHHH
Measurement Type: IC50 (µM)

• C[C@@H]1CN(C(c2ccc(F)cc2)c2ccc(F)cc2)[C@H](C)CN1c1c(Cl)c(=O)n(C)c2ccc(C#N)nc12 = 51
• COC(=O)C1CN(C(c2ccc(F)cc2)c2ccc(F)cc2)CCN1c1c(C#N)c(=O)n(C)c2ccc(C#N)nc12 (stereo not drawn) [Example 114] = 0.42
• C[C@@H]1CN(c2cc(=O)n(C)c3ccc(C#N)nc23)[C@@H](C)CN1C(c1ccc(F)cn1)c1ccc(F)cc1F (single isomer, unassigned) [Example 685] = 0.3
• Cn1c(=O)cc(N2CCN(Cc3ccc(F)cc3Cl)C(COC(F)F)C2)c2nc(C#N)ccc21 (single isomer, unassigned) [Example 1185] = 81
• CC(c1ccc(OC(F)(F)F)cc1)N1C[C@H](CO)N(c2cc(=O)n(C)c3ccc(C#N)nc23)C[C@H]1C (single isomer, unassigned) [Example 1420] = 0.82
• CCC(c1ccc(OC(F)(F)F)cc1F)N1C[C@H](C)N(c2cc(=O)n(C)c3ccc(C#N)nc23)C[C@H]1C (stereo partly drawn) [Example 438] = 0.32

* * *

molecular target: human DGKα (Homo sapiens); construct: TVMV protease cleavage site (C); Hexa-His (C); made in house; host or cells: Sf9 insect cells (baculovirus, Bac-to-Bac); experiment: DGKα LIPGLO assay (extruded liposome substrate), in vitro DGK inhibition; type: biochemical; conditions: liposome (LIPGLO) assay; read-out: DGKa LIPGLO IC50
pIC50: −log10 of the molar value.
// label = yes (1) if pIC50 is not less than 6, otherwise no (0)

• C[C@@H]1CN(c2cc(=O)n(C)c3ccc(C#N)nc23)[C@@H](C)CN1C(c1ccc(OC(F)(F)F)cc1)c1ccccn1 (stereo partly drawn) [Example 377] = yes (1)
• C[C@@H]1CN(c2c(C#N)c(=O)n(C)c3ccc(C#N)nc23)CCN1C(c1ccc(F)cc1)c1cncnc1 (stereo partly drawn) [Example 318] = no (0)
• COC(=O)[C@@H]1CN(c2cc(=O)n(C)c3ccc(C#N)nc23)CCN1C(c1ccc(F)cc1)c1ccc(F)cc1 = no (0)
• CC[C@H]1CN(C(c2ccc(C)cc2)c2ccc(Cl)cc2)[C@H](C)CN1c1cc(=O)n(C)c2ccc(C#N)nc12 (single isomer, unassigned) [Example 1121] = no (0)
• C[C@@H]1CN(c2c(F)c(=O)n(C)c3ccc(C#N)nc23)[C@@H](C)CN1C(c1ccc(F)cc1)c1cccc(F)c1 (single isomer, unassigned) [Example 331] = no (0)
• Cn1c(=O)c(C#N)c(N2CCN(C(c3ccc(F)cc3)c3ccc(F)cc3)C(CO)C2)c2nc(C#N)ccc21 (single isomer, unassigned) [Example 16] = no (0)
• CC[C@H]1CN(C(C)c2ccc(OC(F)(F)F)cc2)[C@H](COC)CN1c1cc(=O)n(C)c2ccc(C#N)nc12 (single isomer, unassigned) [Example 1409] = no (0)
• Cc1ccc(C(c2cccc(Cl)c2)N2C[C@H](C)N(c3cc(=O)n(C)c4ccc(C#N)nc34)C[C@H]2C)nc1 (single isomer, unassigned) [Example 369] = no (0)
• Cn1c(=O)cc(N2CCN(C(c3ccc(F)cc3)c3ccc(F)cc3)C(C#N)C2)c2nc(C#N)ccc21 (stereo not drawn) [Example 43] = no (0)
• C[C@@H]1CN(c2c(C#N)c(=O)n(C)c3ccc(C#N)nc23)CCN1C(c1ccc(Cl)cc1)c1ccncn1 (single isomer, unassigned) [Example 319] = no (0)
• CC[C@@H]1CN(c2cc(=O)n(C)c3ccc(C#N)nc23)[C@@H](C)CN1C(C)c1ccc(C(F)(F)F)cc1F (single isomer, unassigned) [Example 1086] = no (0)
• CC[C@@H]1CN(c2cc(=O)n(C)c3ccc(C#N)nc23)[C@@H](C)CN1Cc1ccc(F)cc1Cl = no (0)
• CC(C)[C@H]1CN(c2c(C#N)c(=O)n(C)c3ccc(Br)nc23)CCN1C(c1ccc(F)cc1)c1ccc(F)cc1 = no (0)
• CC(c1cccc(OC(F)F)c1)N1C[C@H](C)N(c2cc(=O)n(C)c3ccc(C#N)nc23)C[C@H]1C (single isomer, unassigned) [Example 1272] = no (0)
• COc1cc(F)c(C(C)N2C[C@H](C)N(c3cc(=O)n(C)c4ccc(C#N)nc34)C[C@H]2C)c(F)c1 (stereo partly drawn) = yes (1)
• CC[C@@H]1CN(c2cc(=O)n(C)c3ccc(C#N)nc23)[C@@H](C)CN1Cc1ccc(C(F)(F)F)cc1C(F)(F)F = no (0)
• C[C@@H]1CN(c2cc(=O)n(C)c3ccc(C#N)nc23)[C@@H](C)CN1Cc1ccccc1 = yes (1)
• CC[C@@H]1CN(c2cc(=O)n(C)c3ccc(C#N)nc23)[C@@H](C)CN1Cc1ccc2c(c1)OC(F)(F)O2 = no (0)
• Cc1ccc(C(c2ccc(C#N)cc2)N2C[C@H](C)N(c3cc(=O)n(C)c4ccc(C#N)nc34)C[C@H]2C)nc1 (single isomer, unassigned) [Example 360] = yes (1)
• CC(C)C(C)(O)C1CN(c2cc(=O)n(C)c3ccc(C#N)nc23)CCN1C(c1ccc(F)cc1)c1ccc(F)cc1 (single isomer, unassigned) [Example 89] = no (0)
• CC(c1ccc(-n2cncn2)cc1)N1C[C@H](C)N(c2cc(=O)n(C)c3ccc(C#N)nc23)C[C@H]1C (single isomer, unassigned) [Example 1238] = yes (1)

Where do these numbers come from? They come from patent US10669272B2.
